assay: Aqueous solubility in pH 7.4 PBS; type: physicochemical; details: PBS pH 7.4, aqueous buffer; pH 7.4 PBS; read-out: Aqueous solubility in pH7.4 PBS
# log10(solubility) per record follows
Heads up, the numbers here are log10 of solubility in µM units.

Here are 6 compounds together with their reported answers.
[
  {
    "compound": "CNC(=O)c1csc(C2CCCN2Cc2ccc(C)c(F)c2)n1 (centres unmarked) [4B]",
    "log10(solubility)": 2.60
  },
  {
    "compound": "O=C1NCCCc2nc(N3CCN(c4ccccc4F)CC3)sc21 [6A]",
    "log10(solubility)": 1.41
  },
  {
    "compound": "CC1COCCN1c1cc(OCc2ccccc2)nc(-c2nccn2C)n1 (centres unmarked) [3A]",
    "log10(solubility)": 2.73
  },
  {
    "compound": "CN(Cc1cccc(Cl)c1)S(=O)(=O)c1ccc2c(c1)C(=O)NCC2 [8A]",
    "log10(solubility)": 1.20
  },
  {
    "compound": "O=C(Cc1cccc(F)c1)Nc1[nH]ncc1-c1ccccc1 [2B]",
    "log10(solubility)": 2.24
  },
  {
    "compound": "Cc1csc(CN(C)c2nc3c(s2)C(=O)NCCC3)n1 [6B]",
    "log10(solubility)": 2.88
  }
]

Now examine the next entry.
Form field log10(solubility), entry Cc1nccc(N2CCC(C(=O)N(C)CCN(C)S(=O)(=O)c3ccc(Br)cc3)CC2)n1 [1A] : 2.82

====

# Wolbachia reduction after a single day of exposure per record follows
Tested on: Wolbachia within Brugia malayi Mf
Test: Anti-Wolbachia time-kill analysis (timed wash-out) in B. malayi Mf
Format: cell-based
Details: 10x EC50, 1 day exposure, wash, 6-day read out, normalised to vehicle control
Source text: To compare the dynamics of the in vitro phenotype of our hits with existing anti-Wolbachia therapies, we employed a timed wash-out strategy (Fig. 5) at 10x EC50 to establish the anti-Wolbachia time-kill kinetics of the selected chemotypes (1A–5A), using five replicates per compound. […]. Fig. 5 Anti-Wolbachia time-kill analysis. […]

Here are 5 molecules together with their reported answers.
[
  {
    "molecule": "Cc1nc(C(=O)NC(C)c2ccc(F)cc2)c(NC(=O)Cc2ccccc2)[nH]1 (stereo not drawn) [5A]",
    "target-desc": "Wolbachia within Brugia malayi Mf",
    "result": "57–67%"
  },
  {
    "molecule": "C[C@H]1c2cccc(O)c2C(=O)C2=C(O)[C@]3(O)C(=O)C(C(N)=O)=C(O)[C@@H](N(C)C)[C@@H]3[C@@H](O)[C@@H]21 [doxycycline, reference compound]",
    "target-desc": "Wolbachia within Brugia malayi Mf",
    "result": "9%"
  },
  {
    "molecule": "COc1ccc(CC(=O)Nc2[nH]nc(C)c2-c2ccccc2)c(Cl)c1 [2A]",
    "target-desc": "Wolbachia within Brugia malayi Mf",
    "result": "57–67%"
  },
  {
    "molecule": "CC1COCCN1c1cc(OCc2ccccc2)nc(-c2nccn2C)n1 (stereo not drawn) [3A]",
    "target-desc": "Wolbachia within Brugia malayi Mf",
    "result": "42%"
  },
  {
    "molecule": "Cc1nccc(N2CCC(C(=O)N(C)CCN(C)S(=O)(=O)c3ccc(Br)cc3)CC2)n1 [1A]",
    "target-desc": "Wolbachia within Brugia malayi Mf",
    "result": "57–67%"
  }
]

Now examine the next entry.
Form field Wolbachia reduction after a single day of exposure, entry CCc1ccc(CN2CCCC2c2nc(C(=O)N(C)C)cs2)s1 (stereo not drawn) [4A] : 57–67%

====

experiment: LogD7.4; format: physicochemical; conditions: pH 7.4
# logD per record follows
I'd appreciate a reply containing only the number, no unit.

[
  {
    "compound": "CN(Cc1cccc(Br)c1)S(=O)(=O)c1ccc2c(c1)C(=O)NCC2",
    "logD": 3.1
  },
  {
    "compound": "CNC(=O)c1csc(C2CCCN2Cc2ccc(C)c(F)c2)n1 (stereo not shown)",
    "logD": 3.7
  },
  {
    "compound": "Cc1nc(C(=O)NC(C)c2ccc(F)cc2)c(NC(=O)Cc2ccccc2)[nH]1 (stereo not shown)",
    "logD": 3.5
  },
  {
    "compound": "CCc1ccc(CN2CCCC2c2nc(C(=O)N(C)C)cs2)s1 (stereo not shown)",
    "logD": 3.2
  }
]

Form field logD, entry O=C(Cc1cccc(F)c1)Nc1[nH]ncc1-c1ccccc1 : 2.5

Form field logD, entry CN(CC1CCCC(=O)N1)c1cc(OCc2ccccc2)nc(-c2nccn2C)n1 (stereo not shown) : 2.5

Form field logD, entry O=C(Cc1cc(F)cc(F)c1)NCC(=O)NC1C(=O)Nc2ccccc2SC1c1ccccc1 (stereo not shown) : 3

====

assay: Aqueous solubility in pH 7.4 PBS; assay type: physicochemical
experimental-endpoint: Solubility (in words)

[
  {
    "molecule": "Cc1nc(C(=O)NC(C)c2ccc(F)cc2)c(NC(=O)Cc2ccccc2)[nH]1 (stereo not shown) [5A]",
    "result": "lower"
  },
  {
    "molecule": "COc1ccc(C(=O)Nc2ccc(CNC(=O)c3ccnn3C)cc2C)cn1 [7A]",
    "result": "good"
  }
]

====

experiment: Rat hepatocyte clearance; assay type: in vitro ADME
experimental-endpoint: Rat hepatocytes CLint

Here are 5 compounds together with their reported answers.
[
  {
    "compound": "O=C(NCCCn1ccnc1)NC1C(=O)Nc2ccccc2SC1c1cc(F)ccc1F (stereo not shown) [9B]",
    "Rat hepatocytes CLint": "171.6 µl/min/1x106 cells"
  },
  {
    "compound": "Cc1nccc(N2CCC(C(=O)N(C)CCN(C)S(=O)(=O)c3ccc(Br)cc3)CC2)n1 [1A]",
    "Rat hepatocytes CLint": "31.1 µl/min/1x106 cells"
  },
  {
    "compound": "Cc1nc(C(=O)NC(C)c2ccc(F)cc2)c(NC(=O)Cc2ccccc2)[nH]1 (stereo not shown) [5A]",
    "Rat hepatocytes CLint": "8.0 µl/min/1x106 cells"
  },
  {
    "compound": "CN(Cc1cccc(Cl)c1)S(=O)(=O)c1ccc2c(c1)C(=O)NCC2 [8A]",
    "Rat hepatocytes CLint": "> 300 µl/min/1x106 cells"
  },
  {
    "compound": "COc1ccc(CC(=O)Nc2[nH]nc(C)c2-c2ccccc2)c(Cl)c1 [2A]",
    "Rat hepatocytes CLint": "262.8 µl/min/1x106 cells"
  }
]

Form field Rat hepatocytes CLint, entry CCc1ccc(CN2CCCC2c2nc(C(=O)N(C)C)cs2)s1 (stereo not shown) [4A] : > 300 µl/min/1x106 cells

====

assay: Human microsome clearance; format: in vitro ADME; conditions: human, human microsomes
I'd appreciate it if you marked entries True when microsomal CLint is lower than 100 µL/min/mg and False when it is not.

Take a look at these entries with their results.
[
  {
    "compound": "O=C(Cc1cc(F)cc(F)c1)NCC(=O)NC1C(=O)Nc2ccccc2SC1c1ccccc1 (stereo not drawn) [9A]",
    "assigned-category": "False"
  },
  {
    "compound": "O=C(Cc1cccc(F)c1)Nc1[nH]ncc1-c1ccccc1 [2B]",
    "assigned-category": "True"
  }
]

Answer whether the compound CN(CC1CCCC(=O)N1)c1cc(OCc2ccccc2)nc(-c2nccn2C)n1 (stereo not drawn) [3B] has microsomal CLint strictly less than 100 µL/min/mg
True

Answer whether the compound Cc1csc(CN(C)c2nc3c(s2)C(=O)NCCC3)n1 [6B] has microsomal CLint strictly less than 100 µL/min/mg
True

Answer whether the compound CN(Cc1cccc(Br)c1)S(=O)(=O)c1ccc2c(c1)C(=O)NCC2 [8B] has microsomal CLint strictly less than 100 µL/min/mg
False

Answer whether the compound CN(Cc1cccc(Cl)c1)S(=O)(=O)c1ccc2c(c1)C(=O)NCC2 [8A] has microsomal CLint strictly less than 100 µL/min/mg
False

Answer whether the compound Cc1nccc(N2CCC(C(=O)N(C)CCN(C)S(=O)(=O)c3ccc(Br)cc3)CC2)n1 [1A] has microsomal CLint strictly less than 100 µL/min/mg
False

Answer whether the compound Cc1nccc(N2CCC(C(=O)N3CCCN(S(=O)(=O)c4ccc(Br)cc4)CC3)CC2)n1 [1B] has microsomal CLint strictly less than 100 µL/min/mg
False

====

assay: Human microsome clearance; assay type: in vitro ADME; details: human, human microsomes
experimental-endpoint: microsomal CLint (µL/min/mg)
The response must be a number in µL/min/mg with no trailing unit.

Form field microsomal CLint, entry O=C1NCCCc2nc(N3CCN(c4ccccc4F)CC3)sc21 : 11.3

Form field microsomal CLint, entry COc1ccc(CC(=O)Nc2[nH]nc(C)c2-c2ccccc2)c(Cl)c1 : 41.2

Form field microsomal CLint, entry CC1COCCN1c1cc(OCc2ccccc2)nc(-c2nccn2C)n1 (centres unmarked) : 59.7

Form field microsomal CLint, entry CCc1ccc(CN2CCCC2c2nc(C(=O)N(C)C)cs2)s1 (centres unmarked) : 92

Form field microsomal CLint, entry Cc1nc(C(=O)NC(C)c2ccc(F)cc2)c(NC(=O)Cc2ccccc2)[nH]1 (centres unmarked) : 39.5

Form field microsomal CLint, entry CNC(=O)c1csc(C2CCCN2Cc2ccc(C)c(F)c2)n1 (centres unmarked) : 83.4
